System: OltF v 2.1
Sequence (as listed by the source): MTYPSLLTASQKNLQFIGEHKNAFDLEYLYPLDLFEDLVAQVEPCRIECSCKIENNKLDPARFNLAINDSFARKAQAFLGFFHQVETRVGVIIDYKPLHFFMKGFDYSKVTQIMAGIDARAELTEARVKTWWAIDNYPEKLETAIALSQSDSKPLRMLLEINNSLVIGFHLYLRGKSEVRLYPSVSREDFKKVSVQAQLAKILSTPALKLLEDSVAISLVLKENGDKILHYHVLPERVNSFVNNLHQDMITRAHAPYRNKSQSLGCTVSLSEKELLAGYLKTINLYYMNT
test_name: Modification test of thioether-closed artificial cyclic peptides with 9.13 μM OltF v 2.1 (Example 16; Tables 11 and 12)
Type: biochemical, Planktothrix
Parameters: key: 5: strong intensity; 4: medium intensity; 3: weak intensity; 2: very weak intensity; 1: no peak; N/A: not observed
run_parameters: Table 12; OltF v 2.1 9.13 μM, DMAPP 2 mM, 37° C., 18 hours
Non-standard residues stand in square brackets, D forms with d. No end group written: not given here.
Kindly supply the reported Peak intensity, The number of prenyl groups added 0 values for the records listed here.

In [3]: df
Out[3]:
                                  substance  recorded_measurement
0  DNT063 (Ac-[dY]NNRERGSDYYWYYPC; thioether (positions not given here); not fully specified (bridges))                     2

Okay, here is my list. What is Peak intensity, The number of prenyl groups added 0 for each of these?
1. DNT034 (Ac-[dY]NNRERGSDYFWLPPC; thioether (positions not given here); not fully specified (bridges))
2. DNT066 (Ac-[dY]NNRERGSDVVWVVPC; thioether (positions not given here); not fully specified (bridges))

1
4

Okay, here is my list. What is Peak intensity, The number of prenyl groups added 0 for each of these?
1. DNT057 (Ac-[dY]RQFNRRTHYFWLPDC; thioether (positions not given here); not fully specified (bridges))
2. DNT065 (Ac-[dY]NNRERGSDNNWNNPC; thioether (positions not given here); not fully specified (bridges))

1
3

---

Kindly supply the reported MALDI-TOF-MS peak intensity, Number of additions 1 values for the records listed here.
System: KgpF
Sequence (as listed by the source): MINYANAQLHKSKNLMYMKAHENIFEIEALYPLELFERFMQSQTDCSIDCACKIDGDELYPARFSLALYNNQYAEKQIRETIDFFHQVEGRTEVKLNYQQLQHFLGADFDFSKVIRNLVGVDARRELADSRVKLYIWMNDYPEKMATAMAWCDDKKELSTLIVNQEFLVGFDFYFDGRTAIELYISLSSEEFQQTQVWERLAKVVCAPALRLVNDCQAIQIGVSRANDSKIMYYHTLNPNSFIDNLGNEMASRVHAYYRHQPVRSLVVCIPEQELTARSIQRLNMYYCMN
test_name: Prenylation of artificial cyclic peptides with 160 μM KgpF at 0° C., 20 hours (Conditions 13/14 and 19/20; Examples 10, 14, 19; Tables 6 and 18)
Type: biochemical, Microcystis aeruginosa
Parameters: key: 5: strong intensity; 4: medium intensity; 3: weak intensity; 2: very weak intensity; 1: no peak; N/A: not observed
run_parameters: Table 6; 160 μM KgpF, 2 mM DMAPP, 0° C., 20 hours; 1 prenyl added
Non-standard residues stand in square brackets, D forms with d. No end group written: not given here.
One number for each entry.

Look over these answered cases.
substance	target_or_test_system	recorded_measurement
Clone-M7: artificial cyclic peptide containing a plurality of Trps (Ac-[dY]LWVLRSDNTPWVC; thioether (positions not given here); not fully specified (bridges))	KgpF	4
Clone-M2: artificial cyclic peptide containing a plurality of Trps (Ac-[dY]SAWHGKDNYDWFC; thioether (positions not given here); not fully specified (bridges))	KgpF	5

So, Clone-M4: artificial cyclic peptide containing a plurality of Trps (Ac-[dY]RVSNTWWQRHRWC; thioether (positions not given here); not fully specified (bridges)) ? Its MALDI-TOF-MS peak intensity, Number of additions 1 was 4

---

System: KgpF
test_name: Prenylation of artificial cyclic peptides with 160 μM KgpF at 0° C., 20 hours (Conditions 13/14 and 19/20; Examples 10, 14, 19; Tables 6 and 18)
Assay type: biochemical, Microcystis aeruginosa
Design: key: 5: strong intensity; 4: medium intensity; 3: weak intensity; 2: very weak intensity; 1: no peak; N/A: not observed
run_parameters: Table 6; 160 μM KgpF, 2 mM DMAPP, 0° C., 20 hours; 1 prenyl added
Non-standard residues stand in square brackets, D forms with d. No end group written: not given here.
value_type: MALDI-TOF-MS peak intensity, Number of additions 1
One number for each entry.

Look over these answered cases.
substance	recorded_measurement
Clone-M5: artificial cyclic peptide containing a plurality of Trps (Ac-[dY]LWSKNSQPWPESC; thioether (positions not given here); not fully specified (bridges))	5
Clone-M9: artificial cyclic peptide containing a plurality of Trps (Ac-[dY]SFHWGLAVWDHNC; thioether (positions not given here); not fully specified (bridges))	1
Clone-M8: artificial cyclic peptide containing a plurality of Trps (Ac-[dY]THEWPWRTGWTRC; thioether (positions not given here); not fully specified (bridges))	1

So, Clone-M6: artificial cyclic peptide containing a plurality of Trps (Ac-[dY]ILSQENHVWSLWC; thioether (positions not given here); not fully specified (bridges)) ? Its MALDI-TOF-MS peak intensity, Number of additions 1 was 5
